Assay: activity coefficient (dimensionless); of the first substance listed, at infinite dilution; xn = mol fraction of the nth substance listed
Conditions: 373.15 K; 101 kPa; Liquid; Chromatography; x1 = 0
recorded.metric: activity coefficient

INSERT INTO results (compound, endpoint_value) VALUES
  ('COC(=O)OC [dimethyl carbonate] + CCCC[N+]1(C)CCCC1.O=C1O[B-]2(OC1=O)OC(=O)C(=O)O2', 0.884),
  ('ClC(Cl)Cl [trichloromethane] + CCCC[N+]1(C)CCCC1.O=C1O[B-]2(OC1=O)OC(=O)C(=O)O2', 1.11),
  ('COC(C)=O [methyl ethanoate] + CCCC[N+]1(C)CCCC1.O=C1O[B-]2(OC1=O)OC(=O)C(=O)O2', 1.09),
  ('CC(C)OC(C)C [diisopropyl ether] + CCCC[N+]1(C)CCCC1.O=C1O[B-]2(OC1=O)OC(=O)C(=O)O2', 14.4),
  ('CCCCCCCC [octane] + CCCC[N+]1(C)CCCC1.O=C1O[B-]2(OC1=O)OC(=O)C(=O)O2', 56.1),
  ('CCOC(C)=O [ethyl acetate] + CCCC[N+]1(C)CCCC1.O=C1O[B-]2(OC1=O)OC(=O)C(=O)O2', 1.73),
  ('c1ccccc1 [benzene] + CCCC[N+]1(C)CCCC1.O=C1O[B-]2(OC1=O)OC(=O)C(=O)O2', 1.59),
  ('CCC1CCCCC1 [ethylcyclohexane] + CCCC[N+]1(C)CCCC1.O=C1O[B-]2(OC1=O)OC(=O)C(=O)O2', 27),
  ('CC(C)=O [acetone] + CCCC[N+]1(C)CCCC1.O=C1O[B-]2(OC1=O)OC(=O)C(=O)O2', 0.784),
  ('CCCO [propan-1-ol] + CCCC[N+]1(C)CCCC1.O=C1O[B-]2(OC1=O)OC(=O)C(=O)O2', 1.76);

1. CCCCCCC [heptane] + CCCC[N+]1(C)CCCC1.O=C1O[B-]2(OC1=O)OC(=O)C(=O)O2
2. COCCOC [1,2-dimethoxyethane] + CCCC[N+]1(C)CCCC1.O=C1O[B-]2(OC1=O)OC(=O)C(=O)O2
Task: Between item 1 and item 2 , which reported activity coefficient is smaller? // caller expects the label of the chosen entry
Result: 2
(2: 1.29, 1: 40.8)

----------
Assay: activity coefficient (dimensionless); of the first substance listed, at infinite dilution; xn = mol fraction of the nth substance listed
Details: 333.15 K; 101 kPa; Liquid; Chromatography; x1 = 0
recorded.metric: activity coefficient

INSERT INTO results (compound, endpoint_value) VALUES
  ('ClCCl [dichloromethane] + CCCC[N+]1(C)CCCC1.O=C1O[B-]2(OC1=O)OC(=O)C(=O)O2', 0.745),
  ('CCCCCCCC [octane] + CCCC[N+]1(C)CCCC1.N#C[B-](C#N)(C#N)C#N', 29.4),
  ('CCCCCCC [heptane] + CCCC[N+]1(C)CCCC1.N#C[B-](C#N)(C#N)C#N', 20.9),
  ('CCCCCCCC [octane] + CCCC[N+]1(C)CCCC1.O=C1O[B-]2(OC1=O)OC(=O)C(=O)O2', 88.8),
  ('CC1CCCCC1 [methylcyclohexane] + CCCC[N+]1(C)CCCC1.O=C1O[B-]2(OC1=O)OC(=O)C(=O)O2', 30);

A. ClCCl [dichloromethane] + CCCC[N+]1(C)CCCC1.N#C[B-](C#N)(C#N)C#N
B. CCO [ethanol] + CCCC[N+]1(C)CCCC1.O=C1O[B-]2(OC1=O)OC(=O)C(=O)O2
Task: Between item A and item B , which reported activity coefficient is smaller? // caller expects the label of the chosen entry
Result: A
